Origin of values: ChEMBL document CHEMBL4765297

test system: N2a; assay: Cytotoxicity against mouse N2a cells assessed as reduction in cell viability incubated for 3 hrs by MTT assay; type: cell-based
Measured metric: Activity

1. CCOc1ccc(CNC(=O)CSc2c3c(nc4cc(Cl)ccc24)CCCC3)cc1 ... Non-Toxic
2. O=C(Nc1ccc(Oc2ccccc2)cc1)c1cc2cc3ccc(Cl)cc3nc2o1 ... Non-Toxic
3. COc1ccc2nc(NC(=O)c3cc4c(=O)n(C)c5cc(Cl)ccc5c4s3)sc2c1 ... Non-Toxic
4. Cn1c(CSc2ccnc3cc(Cl)ccc23)nnc1SCC(=O)N1CCN(c2ccccc2)CC1 ... Non-Toxic
